System: MDA-MB-453 cells
Assay: Resazurin-based cell viability assay, monotherapy drug screen
Set-up: species or system human
Conditions: Homo sapiens, MDA-MB-453, 24 h
measurement.type: IC50 (µM)

[[record]]
compound = "CC1=C(O)C(=O)C=C2C1=CC=C1[C@@]2(C)CC[C@@]2(C)[C@@H]3C[C@](C)(C(=O)O)CC[C@]3(C)CC[C@]12C [Celastrol]"
endpoint_result = 3.7


---

Measured pIC50 accompanies every entry in the list below.
System: MDA-MB-468 cells
Assay: Resazurin-based cell viability assay, monotherapy drug screen
Design: species or system human
Conditions: MDA-MB-468; 24 h drug treatment; read-out: IC50
pIC50: −log10 of the molar value.
measurement.type: pIC50

[[record]]
compound = "N.N.[Cl][Pt][Cl] [Cisplatin]"
measurement_type = "pIC50"
endpoint_result = 7.82

[[record]]
compound = "N.N.O=C([O-])C1(C(=O)[O-])CCC1.[Pt+2]"
measurement_type = "pIC50"
endpoint_result = 6.33

[[record]]
compound = "CC[C@H](C)[C@H](NC(=O)[C@H]([C@@H](C)CC)N(C)C(C)=O)C(=O)N[C@H](C(=O)N[C@@H](CC(C)C)C(=O)[C@@]1(C)CO1)[C@@H](C)O"
measurement_type = "pIC50"
endpoint_result = 6.96

[[record]]
compound = "[NH2][Pt]1([NH2])[O]CC(=O)[O]1"
measurement_type = "pIC50"
endpoint_result = 7.17


---

System: HCC70 cells
Experiment: Resazurin-based cell viability assay, monotherapy drug screen
Design: species or system human
Conditions: Homo sapiens; HCC70; growth rate inhibition concentration at GR(c) = 0.5, 24 h; read-out: GR50 (the source's name)
Protocol: Eighteen pharmaceutical compounds were purchased from Selleckchem. […] The stock solutions were stored at -80°C. […] New drug plates were prepared for each drug screen. […]
pIC50: −log10 of the molar value.
Measured pIC50 accompanies every entry in the list below.
measurement.type: pIC50

[[record]]
compound = "CC(=O)O[C@H]1C(=O)[C@@]2(C)[C@H]([C@H](OC(=O)c3ccccc3)[C@]3(O)C[C@H](OC(=O)[C@H](O)[C@@H](NC(=O)c4ccccc4)c4ccccc4)C(C)=C1C3(C)C)[C@]1(OC(C)=O)CO[C@@H]1C[C@@H]2O"
study_target = "HCC70 cells"
measurement_type = "pIC50"
endpoint_result = 6.42

[[record]]
compound = "COc1cccc2c1C(=O)c1c(O)c3c(c(O)c1C2=O)C[C@@](O)(C(=O)CO)C[C@@H]3O[C@H]1C[C@H](N)[C@@H](O)[C@H](C)O1 [Epirubicin]"
study_target = "HCC70 cells"
measurement_type = "pIC50"
endpoint_result = 6.00

[[record]]
compound = "CC(C)C[C@H](NC(=O)[C@H](Cc1ccccc1)NC(=O)c1cnccn1)B(O)O"
study_target = "HCC70 cells"
measurement_type = "pIC50"
endpoint_result = 7.00

[[record]]
compound = "COc1cccc2c1C(=O)c1c(O)c3c(c(O)c1C2=O)C[C@@](O)(C(=O)CO)C[C@@H]3O[C@H]1C[C@H](N)[C@H](O)[C@H](C)O1"
study_target = "HCC70 cells"
measurement_type = "pIC50"
endpoint_result = 5.74

[[record]]
compound = "CC(C)C[C@H](NC(=O)[C@H](CCc1ccccc1)NC(=O)CN1CCOCC1)C(=O)N[C@@H](Cc1ccccc1)C(=O)N[C@@H](CC(C)C)C(=O)[C@@]1(C)CO1"
study_target = "HCC70 cells"
measurement_type = "pIC50"
endpoint_result = 6.32

